src = patent US20250277012A1

test-target: ferroportin (Homo sapiens)
assay-details: T47D cell-based ferroportin internalization assay in presence of mouse serum albumin (MSA)
Parameters: a human breast carcinoma adherent cell line which endogenously expresses ferroportin; host or cells: T47D
test-context: Table 6E; T47D internalization assay with MSA
Positions of bridges follow the written chain, without caps; N, C: chain ends. Non-standard residues stand in square brackets, D forms with d. Residues, ends and D or L forms follow the SMILES beside them. Groups on a side chain read outwards from the residue. *: point of attachment. X1 = C[N+](C)(CCNC(=O)CCCCCCCCCCCCCCCCC(=O)O)CC(=O)*; Dip = N[C@H](C(=O)O)C(c1ccccc1)c1ccccc1; Pro(3R-OH) = O=C(O)[C@H]1NCC[C@H]1O; NMeF = CN[C@@H](Cc1ccccc1)C(=O)O; NMeK = CN[C@@H](CCCCN)C(=O)O; Isovaleryl = CC(C)CC(=O)*; Ahx = NCCCCCC(=O)O
outcome-measure: IC50

# molecule, IC50
measured = [
    ("COC(=O)CC[C@H](NC(=O)CC(C)C)C(=O)N[C@@H](CO)C(=O)N[C@@H](Cc1c[nH]cn1)C(=O)N(C)[C@@H](Cc1ccccc1)C(=O)N1CCC[C@H]1C(=O)N[C@H]1CSSC[C@@H](C(=O)N(C)[C@@H](CCCCNC(=O)CCCCCNC(=O)C[N+](C)(C)CCNC(=O)CCCCCCCCCCCCCCCCC(=O)O)C(=O)N[C@H](C(=O)N[C@H](CCCCN)C(N)=O)C(c2ccccc2)c2ccccc2)NC1=O [compound 148] (Isovaleryl-E(OMe)SH[NMeF]PCC[NMeK]([Ahx-X1])[Dip][dK]-NH2; disulfide 6-7)", "> 500 nM"),
]

Pending molecule:
Return the recorded IC50 value; entry: CC(C)CC(=O)N[C@@H](CCC(=O)O)C(=O)N1CC[C@@H](O)[C@H]1C(=O)N[C@@H](Cc1c[nH]cn1)C(=O)N[C@H](C(=O)N1CCC[C@H]1C(=O)N[C@H]1CSSC[C@@H](C(=O)N(C)[C@@H](CCCCNC(=O)CCCCCNC(=O)C[N+](C)(C)CCNC(=O)CCCCCCCCCCCCCCCCC(=O)O)C(=O)N[C@H](C(N)=O)C(c2ccccc2)c2ccccc2)NC1=O)C(c1ccccc1)c1ccccc1 [compound 154] (Isovaleryl-E[Pro(3R-OH)]H[Dip]PCC[NMeK]([Ahx-X1])[Dip]-NH2; disulfide 6-7)
10 to 100 nM

* * *

test-target: ferroportin (Homo sapiens, UniProt Q9NP59)
Sequence (Q9NP59 whole entry): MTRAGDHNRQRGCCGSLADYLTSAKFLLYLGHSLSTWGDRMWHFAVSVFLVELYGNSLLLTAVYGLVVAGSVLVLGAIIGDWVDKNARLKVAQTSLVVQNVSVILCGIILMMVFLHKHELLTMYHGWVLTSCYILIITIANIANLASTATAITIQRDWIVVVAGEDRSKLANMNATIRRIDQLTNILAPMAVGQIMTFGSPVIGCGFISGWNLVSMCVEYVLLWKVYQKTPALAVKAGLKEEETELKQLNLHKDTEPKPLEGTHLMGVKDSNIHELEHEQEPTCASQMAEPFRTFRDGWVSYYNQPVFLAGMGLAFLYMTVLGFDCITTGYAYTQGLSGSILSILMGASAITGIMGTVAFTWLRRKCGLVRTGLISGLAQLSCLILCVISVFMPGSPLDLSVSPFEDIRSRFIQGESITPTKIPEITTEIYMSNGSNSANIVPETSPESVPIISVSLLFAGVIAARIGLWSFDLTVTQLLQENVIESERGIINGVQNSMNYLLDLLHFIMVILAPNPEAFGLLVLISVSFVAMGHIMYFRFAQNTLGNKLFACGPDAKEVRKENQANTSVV
assay-details: T47D cell-based ferroportin internalization assay in presence of mouse serum albumin (MSA)
Set-up: a human breast carcinoma adherent cell line which endogenously expresses ferroportin; host or cells: T47D
test-context: T47D internalization assay in presence of mouse serum albumin (MSA); Table 6E
Experimental: The potency of the peptides in causing ferroportin internalization was evaluated in a T47D cell-based assay. […] In this internalization assay, the potency of the test peptides was evaluated in presence of serum albumin which is the main protein component in the blood. […] The Median Fluorescence Intensity (MFI) of the AF647-positive population was measured (after removing dead cells and non-singlets from the analysis). […]
pIC50: −log10 of the molar value. Starred links: 1 amine or outer side, 2 acyl side, 3 side chain; linkers in the order of their positions; H or OH if unused. Positions of bridges follow the written chain, without caps; N, C: chain ends. Non-standard residues stand in square brackets, D forms with d. Residues, ends and D or L forms follow the SMILES beside them. Groups on a side chain read outwards from the residue. *: point of attachment. C18 diacid = O=C(O)CCCCCCCCCCCCCCCCC(=O)*; Dip = N[C@H](C(=O)O)C(c1ccccc1)c1ccccc1; X6 = O=C([C@H](CC1N=NN=N1)N[*:1])[*:2]; β3hF = N[C@H](CC(=O)O)Cc1ccccc1; NMeK = CN[C@@H](CCCCN)C(=O)O; Isovaleryl = CC(C)CC(=O)*; Dap = NC[C@H](N)C(=O)O; AEEA = NCCOCCOCC(=O)O
Parameter: pIC50. Scope: all listed entries.

# molecule, pIC50
records = [
    ("COC(=O)CC[C@H](NC(=O)CC(C)C)C(=O)N[C@H](C(=O)N[C@@H](Cc1c[nH]cn1)C(=O)N[C@H](C(=O)N1CCC[C@H]1C(=O)N[C@H]1CSSC[C@@H](C(=O)N(C)[C@@H](CCCCNC(=O)COCCOCCNC(=O)COCCOCCNC(=O)[C@H](CN)NC(=O)CCCCCCCCCCCCCCCCC(=O)O)C(=O)N[C@H](CC(N)=O)Cc2ccccc2)NC1=O)C(c1ccccc1)c1ccccc1)[C@@H](C)O [compound 256] (Isovaleryl-E(OMe)TH[Dip]PCC[NMeK]([AEEA-AEEA-Dap-C18 diacid])[β3hF]-NH2; disulfide 6-7)", "7.00 to 8.00"),
    ("COC(=O)CC[C@H](NC(=O)CC(C)C)C(=O)N[C@H](C(=O)N[C@@H](Cc1c[nH]cn1)C(=O)N[C@H](C(=O)N1CCC[C@H]1C(=O)N[C@H]1CSSC[C@@H](C(=O)N(C)[C@@H](CCCCNC(=O)COCCOCCNC(=O)COCCOCCNC(=O)[C@H](CN)NC(=O)CCCCCCCCCCCCCCCCC(=O)O)C(=O)N[C@H](CC(=O)N[C@H](CCCCN)C(N)=O)Cc2ccccc2)NC1=O)C(c1ccccc1)c1ccccc1)[C@@H](C)O [compound 305] (Isovaleryl-E(OMe)TH[Dip]PCC[NMeK]([AEEA-AEEA-Dap-C18 diacid])[β3hF][dK]-NH2; disulfide 6-7)", "7.00 to 8.00"),
]

Pending molecule:
Return the recorded pIC50 value; entry: CC(C)CC(=O)N[C@@H](CC1N=NN=N1)C(=O)N[C@H](C(=O)N[C@@H](Cc1cnc[nH]1)C(=O)N[C@H](C(=O)N1CCC[C@H]1C(=O)N[C@H]1CSSC[C@@H](C(=O)N(C)[C@@H](CCCCNC(=O)COCCOCCNC(=O)COCCOCCNC(=O)[C@H](CN)NC(=O)CCCCCCCCCCCCCCCCC(=O)O)C(=O)N[C@H](CC(=O)N[C@H](CCCCN)C(N)=O)Cc2ccccc2)NC1=O)C(c1ccccc1)c1ccccc1)[C@@H](C)O [compound 288] (Isovaleryl-[X6]TH[Dip]PCC[NMeK]([AEEA-AEEA-Dap-C18 diacid])[β3hF][dK]-NH2; disulfide 6-7)
7.00 to 8.00
